The origin of these recorded values is patent US8293769B2.

TARGET: cKIT (Homo sapiens)
Construct: The kinase domain of cKIT was assayed in 50 mM Hepes; purchased Upstate 14-559
Sequence (P10721 589-937 limits assumed): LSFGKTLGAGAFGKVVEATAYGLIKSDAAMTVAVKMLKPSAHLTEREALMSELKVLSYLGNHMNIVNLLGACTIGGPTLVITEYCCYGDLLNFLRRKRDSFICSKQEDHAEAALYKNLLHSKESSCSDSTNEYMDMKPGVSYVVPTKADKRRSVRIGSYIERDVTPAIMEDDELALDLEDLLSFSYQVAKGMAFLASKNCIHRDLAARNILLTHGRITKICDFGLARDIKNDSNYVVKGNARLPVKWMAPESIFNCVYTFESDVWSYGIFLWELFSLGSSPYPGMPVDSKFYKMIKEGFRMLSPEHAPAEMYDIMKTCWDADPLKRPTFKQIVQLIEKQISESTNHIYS
TEST DETAILS: cKIT kinase in vitro biochemical assay (alphascreen)
CONDITION PARAMETERS: tested at about 1 μM; read-out: CKIT percent inhibition
REPORTED ENDPOINT: inhibition at 1 µM (%)

{"SMILES STRUCTURE": "O[C@@H]1CCCC[C@H]1Nc1nc2ccc(Oc3cncc(-n4cncn4)n3)cc2s1", "NUMERIC READOUT": 9}
{"SMILES STRUCTURE": "CC(C)(C)OC(=O)N1CC=C(c2cncc(Oc3ccc4nc(N[C@@H]5CCCC[C@H]5O)sc4c3)c2)CC1", "NUMERIC READOUT": 48}
{"SMILES STRUCTURE": "CCn1cc(-c2cncc(Oc3ccc4nc(N[C@@H]5CCCC[C@H]5O)sc4c3)c2)cn1", "NUMERIC READOUT": 66}
{"SMILES STRUCTURE": "CN1CCN(c2ccc(-c3cncc(Oc4ccc5nc(N[C@@H]6CCCC[C@H]6O)sc5c4)n3)cn2)CC1", "NUMERIC READOUT": 15}
{"SMILES STRUCTURE": "O[C@@H]1CCCC[C@H]1Nc1nc2ccc(Oc3cccnc3)cc2s1", "NUMERIC READOUT": 10}
{"SMILES STRUCTURE": "C[C@H](Nc1nc2ccc(Oc3ccnc(Cl)n3)cc2s1)C1CCCCC1", "NUMERIC READOUT": 19}
{"SMILES STRUCTURE": "COc1cc2ncnc(Oc3ccc4nc(N[C@@H]5CCCC[C@H]5O)sc4c3)c2cc1OC", "NUMERIC READOUT": 34}
{"SMILES STRUCTURE": "Cn1nccc1-c1nccc(Oc2ccc3nc(N[C@@H]4CCCC[C@H]4O)sc3c2)n1", "NUMERIC READOUT": 24}
{"SMILES STRUCTURE": "Nc1ncc(-c2cncc(Oc3ccc4nc(N[C@@H]5CCCC[C@H]5O)sc4c3)c2)cn1", "NUMERIC READOUT": 35}
{"SMILES STRUCTURE": "O[C@@H]1CCCC[C@H]1Nc1nc2ccc(Oc3cncc(-c4cccnc4)n3)cc2s1", "NUMERIC READOUT": 23}
{"SMILES STRUCTURE": "N#Cc1ccc(Oc2ccc3nc(NCC4CCCCC4)sc3c2)cn1", "NUMERIC READOUT": 19}
{"SMILES STRUCTURE": "Cn1cc(-c2nccc(Oc3ccc4nc(N[C@@H]5CCCC[C@H]5O)sc4c3)n2)cn1", "NUMERIC READOUT": 19}
{"SMILES STRUCTURE": "O[C@@H]1CCCC[C@H]1Nc1nc2ccc(Oc3cncc(-c4ccc(N5CCOCC5)nc4)c3)cc2s1", "NUMERIC READOUT": 76}
{"SMILES STRUCTURE": "N#Cc1ccc(Oc2ccc3nc(N[C@@H]4CCCC[C@H]4O)sc3c2)cn1", "NUMERIC READOUT": 15}
{"SMILES STRUCTURE": "O[C@@H]1CCCC[C@H]1Nc1nc2ccc(Oc3cncc(-c4ccn[nH]4)c3)cc2s1", "NUMERIC READOUT": 88}
{"SMILES STRUCTURE": "Clc1cc(Oc2ccc3nc(NCC4CCCCC4)sc3c2)ncn1", "NUMERIC READOUT": 11}
{"SMILES STRUCTURE": "COc1cncc(-c2cncc(Oc3ccc4nc(N[C@@H]5CCCC[C@H]5O)sc4c3)c2)c1", "NUMERIC READOUT": 59}
{"SMILES STRUCTURE": "Nc1ccc(-c2cc(Oc3ccc4nc(N[C@@H]5CCCC[C@H]5O)sc4c3)cnc2Cl)cn1", "NUMERIC READOUT": 15}
{"SMILES STRUCTURE": "Cn1cc(-c2cc(Oc3ccc4nc(NCC5CCCCC5)sc4c3)ncn2)cn1", "NUMERIC READOUT": 99}
{"SMILES STRUCTURE": "CNC(=O)c1ccc(Oc2ccc3nc(N[C@@H]4CCCC[C@H]4O)sc3c2)cn1", "NUMERIC READOUT": 56}
{"SMILES STRUCTURE": "CCCn1cc(-c2cncc(Oc3ccc4nc(N[C@@H]5CCCC[C@H]5O)sc4c3)c2)cn1", "NUMERIC READOUT": 86}
{"SMILES STRUCTURE": "O[C@@H]1CCCC[C@H]1Nc1nc2ccc(Oc3cncc(C4CC4)c3)cc2s1", "NUMERIC READOUT": 73}
{"SMILES STRUCTURE": "CN(C)c1ncc(-c2cncc(Oc3ccc4nc(N[C@@H]5CCCC[C@H]5O)sc4c3)c2)cn1", "NUMERIC READOUT": 24}
{"SMILES STRUCTURE": "Cn1nccc1-c1cncc(Oc2ccc3nc(N[C@@H]4CCCC[C@H]4O)sc3c2)n1", "NUMERIC READOUT": 21}
{"SMILES STRUCTURE": "O[C@@H]1CCCC[C@H]1Nc1nc2ccc(Oc3cnccc3Cl)cc2s1", "NUMERIC READOUT": 25}
{"SMILES STRUCTURE": "O[C@@H]1CCCC[C@H]1Nc1nc2ccc(Oc3ccnc(Cl)n3)cc2s1", "NUMERIC READOUT": 19}
{"SMILES STRUCTURE": "O[C@@H]1CCCC[C@H]1Nc1nc2ccc(Oc3cncc(-c4cnc5[nH]ccc5c4)c3)cc2s1", "NUMERIC READOUT": 84}
{"SMILES STRUCTURE": "Cn1cncc1-c1cncc(Oc2ccc3nc(N[C@@H]4CCCC[C@H]4O)sc3c2)c1", "NUMERIC READOUT": 33}
{"SMILES STRUCTURE": "C[C@H](Nc1nc2ccc(Oc3cc(-n4cncn4)ncn3)cc2s1)C1CCCCC1", "NUMERIC READOUT": 28}
{"SMILES STRUCTURE": "CNC(=O)c1ccncc1Oc1ccc2nc(NCC3CCCCC3)sc2c1", "NUMERIC READOUT": 32}
{"SMILES STRUCTURE": "Cn1cc(-c2cncc(Oc3ccc4nc(N[C@@H]5CCCC[C@H]5O)sc4c3)c2)cn1", "NUMERIC READOUT": 60}
{"SMILES STRUCTURE": "Clc1nccc(Oc2ccc3nc(NCC4CCCCC4)sc3c2)n1", "NUMERIC READOUT": 23}
{"SMILES STRUCTURE": "O[C@@H]1CCCC[C@H]1Nc1nc2ccc(Oc3cc(-n4cncn4)ncn3)cc2s1", "NUMERIC READOUT": 15}

* * *

TARGET: PDGFRb (Homo sapiens)
Construct: The kinase domain of PDGFRβ was assayed in 50 mM Hepes; purchased Invitrogen P3082
Sequence (P09619 600-962 limits assumed): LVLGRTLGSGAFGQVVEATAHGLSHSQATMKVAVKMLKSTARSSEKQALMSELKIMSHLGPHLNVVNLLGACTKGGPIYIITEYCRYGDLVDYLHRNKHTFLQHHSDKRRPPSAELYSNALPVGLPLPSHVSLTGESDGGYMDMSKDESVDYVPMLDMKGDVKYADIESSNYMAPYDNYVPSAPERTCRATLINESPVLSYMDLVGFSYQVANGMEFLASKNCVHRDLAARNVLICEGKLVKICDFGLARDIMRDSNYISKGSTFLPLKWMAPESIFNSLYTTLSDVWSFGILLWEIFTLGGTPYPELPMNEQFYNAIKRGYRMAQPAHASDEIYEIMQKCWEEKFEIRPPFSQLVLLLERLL
TEST DETAILS: PDGFRb kinase in vitro biochemical assay (alphascreen)
CONDITION PARAMETERS: tested at about 1 μM; read-out: PDGF RK BETA percent inhibition
Below: a set of entries, each annotated with reported inhibition at 1 µM.

{"COMPOUND": "O[C@@H]1CCCC[C@H]1Nc1nc2ccc(Oc3cncc(-c4ncco4)c3)cc2s1 [Compound 83]", "inhibition at 1 µM [%]": 98}
{"COMPOUND": "Cn1cc(-c2nccc(Oc3ccc4nc(N[C@@H]5CCCC[C@H]5O)sc4c3)n2)cn1 [Compound 23]", "inhibition at 1 µM [%]": 7}
{"COMPOUND": "CCn1cc(-c2cncc(Oc3ccc4nc(N[C@@H]5CCCC[C@H]5O)sc4c3)c2)cn1 [Compound 80]", "inhibition at 1 µM [%]": 0}
{"COMPOUND": "O[C@@H]1CCCC[C@H]1Nc1nc2ccc(Oc3cncc(-c4ccncc4)c3)cc2s1 [Compound 60]", "inhibition at 1 µM [%]": 3}
{"COMPOUND": "C[C@H](Nc1nc2ccc(Oc3cc(Cl)ncn3)cc2s1)C1CCCCC1 [Compound 35]", "inhibition at 1 µM [%]": 2}
{"COMPOUND": "Nc1ccc(-c2cc(Oc3ccc4nc(N[C@@H]5CCCC[C@H]5O)sc4c3)cnc2-c2ccc(N)nc2)cn1 [Compound 108]", "inhibition at 1 µM [%]": 23}
{"COMPOUND": "c1nc(Oc2ccc3nc(NCC4CCCCC4)sc3c2)cc(N2CCOCC2)n1 [Compound 11]", "inhibition at 1 µM [%]": 13}
{"COMPOUND": "O[C@@H]1CCCC[C@H]1Nc1nc2ccc(Oc3cncc(-c4cscn4)c3)cc2s1 [Compound 69]", "inhibition at 1 µM [%]": 31}
{"COMPOUND": "Cn1cc(-c2cc(Oc3ccc4nc(NCC5CCCCC5)sc4c3)ncn2)cn1 [Compound 20]", "inhibition at 1 µM [%]": 82}
{"COMPOUND": "CCN(CC)CCn1cc(-c2cncc(Oc3ccc4nc(N[C@@H]5CCCC[C@H]5O)sc4c3)c2)cn1 [Compound 81]", "inhibition at 1 µM [%]": 0}
{"COMPOUND": "C[C@H](Nc1nc2ccc(Oc3ccnc(-c4ccc(N)nc4)n3)cc2s1)C1CCCCC1 [Compound 33]", "inhibition at 1 µM [%]": 22}
{"COMPOUND": "Cn1cc(-c2nccc(Oc3ccc4nc(NCC5CCCCC5)sc4c3)n2)cn1 [Compound 21]", "inhibition at 1 µM [%]": 92}
{"COMPOUND": "O[C@@H]1CCCC[C@H]1Nc1nc2ccc(Oc3cncc(-c4cn[nH]c4)c3)cc2s1 [Compound 55]", "inhibition at 1 µM [%]": 19}
{"COMPOUND": "O[C@@H]1CCCC[C@H]1Nc1nc2ccc(Oc3cncc(-c4cnccn4)c3)cc2s1 [Compound 84]", "inhibition at 1 µM [%]": 100}
{"COMPOUND": "Cn1nccc1-c1cncc(Oc2ccc3nc(N[C@@H]4CCCC[C@H]4O)sc3c2)c1 [Compound 56]", "inhibition at 1 µM [%]": 10}
{"COMPOUND": "c1nc(Oc2ccc3nc(NCC4CCCCC4)sc3c2)c2ccsc2n1 [Compound 37]", "inhibition at 1 µM [%]": 39}
{"COMPOUND": "Cn1ccnc1-c1cncc(Oc2ccc3nc(N[C@@H]4CCCC[C@H]4O)sc3c2)c1 [Compound 66]", "inhibition at 1 µM [%]": 9}
